// provenance: paper PMC6966494

target: GPR17 (Rattus norvegicus); construct: oligodendrocyte precursor cells (OPCs) natively expressing GPR17; endogenous in cells; experiment: cAMP assay: inhibition of forskolin-stimulated adenylyl cyclase activity in primary OPCs; conditions: primary OPCs, 10 μM forskolin, 0.1–50 nM; read-out: EC50, inhibition of forskolin-stimulated cAMP formation
PROPERTY: EC50 (nM)
Report as a plain number; the unit nM is understood.

Requested field: EC50. Item: COc1ccc(-n2c(SC(C)C(=O)Nc3ccccc3)nnc2-c2ccccc2OC)cc1 (stereo not shown)
6.5

----------
molecular target: GPR17 (Rattus norvegicus, UniProt Q09QM4); construct: oligodendrocyte precursor cells (OPCs) natively expressing GPR17; endogenous in cells; assay: cAMP assay: inhibition of forskolin-stimulated adenylyl cyclase activity in primary OPCs; settings: primary OPCs, constant ASN 1 concentration of 10 nM; read-out: IC50, antagonism of ASN 1-mediated inhibition of forskolin-stimulated adenylyl cyclase activity
Sequence (Q09QM4 whole entry): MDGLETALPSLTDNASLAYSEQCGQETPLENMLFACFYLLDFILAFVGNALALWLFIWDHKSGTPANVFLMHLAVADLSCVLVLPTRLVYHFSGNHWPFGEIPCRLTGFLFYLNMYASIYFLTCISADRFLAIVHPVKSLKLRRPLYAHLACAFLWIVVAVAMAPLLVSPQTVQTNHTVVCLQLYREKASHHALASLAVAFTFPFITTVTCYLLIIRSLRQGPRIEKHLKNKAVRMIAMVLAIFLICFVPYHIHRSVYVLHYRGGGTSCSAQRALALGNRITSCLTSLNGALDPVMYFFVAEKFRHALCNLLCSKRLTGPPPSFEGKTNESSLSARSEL
PROPERTY: IC50 (nM)
Report as a plain number; the unit nM is understood.

Requested field: IC50. Item: CSCCNc1nc(SCCC(F)(F)F)nc2c1ncn2[C@@H]1O[C@H](COP(=O)(O)OP(=O)(O)C(Cl)(Cl)P(=O)(O)O)[C@@H](O)[C@H]1O
10.2
